# Assay details: Confirmation Concentration-Response Assay for Inhibitors of the ERK Signaling Pathway using a Homogeneous Screening Assay
# Conditions: HEK293 cells, hormone-stimulated phospho-ERK AlphaScreen; series mostly up to 40.9 µM
Results filed as inconclusive are left out. Activity calls are given as the source filed them. Calls follow the shape of the dose curve; as a rule, active = well fitted inhibition curve with a large enough effect; inconclusive = small, poorly fitted or top-dose-only effect, or effect the other way; inactive = no such curve, though single readings can be large or run the other way.
Outcomes: active, inactive

In [3]: df
Out[3]:
                                   molecule  class_assignment
0  COc1ccc(CC(=O)Nc2cccc(-c3nnc(-c4ccc(C)cc4)o3)c2)cc1OC            active
1  COc1ccc(C(=O)OC(COc2ccccc2)Cn2ccnc2)cc1 (stereo not given)            active
2         Cc1ccc(NNc2c(C)nc3ccccc3nc2=O)cc1          inactive
3  COc1ccc(C(=O)Nc2cccc(C(C)=O)c2)cc1S(=O)(=O)N1CCOCC1          inactive
4  CCOC(=O)c1ccc(NC(=O)c2cccc(S(=O)(=O)N3CCOCC3)c2)cc1            active

====

# Assay details: Confirmation Concentration-Response Assay for Inhibitors of the ERK Signaling Pathway using a Homogeneous Screening Assay
# Conditions: HEK293 cells, hormone-stimulated phospho-ERK AlphaScreen; series mostly up to 40.9 µM
Records with an inconclusive call do not appear. Active and inactive are the calls of the source. The call rests on the fitted dose curve; in most records, active means well fitted inhibition curve with a large enough effect; inconclusive means small, poorly fitted or top-dose-only effect, or effect the other way; inactive means no such curve, though single readings can be large or run the other way.
Outcomes: active, inactive

>>> print(df.to_string())
                               smiles_string  class_assignment
 0    Cc1cccc(CNc2ncnc3ccc(-c4cccnc4)cc23)c1            active
 1  CN(C)c1ccc(-c2ccc3ncnc(NCc4ccccc4)c3c2)cc1            active
 2                Cc1sc2ncnc(Nc3ccccc3)c2c1C          inactive
 3  CCCN(CCC)S(=O)(=O)c1cccc(C(=O)Nc2ccc3c(c2)OCO3)c1          inactive
 4  c1ccc(Oc2nc(NCc3ccco3)nc(NCc3ccco3)n2)cc1          inactive
 5  O=C(Nc1nc(-c2ccccc2)cs1)c1ccc(N2CCOCC2)c([N+](=O)[O-])c1            active
 6  C=CS(=O)(=O)c1ccc(Oc2ccc(S(=O)(=O)C=C)cc2)cc1            active
 7  COc1ccc2[nH]cc(CCNc3ncnc4ccc(-c5ccc(C(=O)N(C)C)cc5)cc34)c2c1            active
 8  COc1ccc(N=C2C(=Nc3ccc(OC)cc3)N(c3ccc(N(C)C)cc3)C(=S)N2c2ccc(OC)cc2)cc1            active
 9  COc1ccc(CC(=O)Nc2cccc(-c3nnc(-c4cccc(C)c4)o3)c2)cc1OC            active
10  O=S(=O)(c1ccccc1)N1CCN(c2cc(-c3ccccc3)nc3ncnn23)CC1            active
11  CCCC(=O)N1CCN(c2ccc(NC(=O)c3cc4ccccc4o3)cc2Cl)CC1            active
12  CS(=O)(=O)CCNCc1nc(-c2ccc3ncnc(Nc4ccc(OCc5cccc(F)c5)c(Cl)c4)c3c2)cs1          inactive
13  Cn1nc(-c2ccc(Cl)cc2)nc2c(=O)n(C)c(=O)nc1-2          inactive
14  CC1(C)OC(c2ccccc2)=C/C(=C/C=C2C(=O)c3ccccc3C2=O)O1            active
15  COc1ccc(C(=O)c2ccc(Cl)c([N+](=O)[O-])c2)cc1            active
16           Cc1ccc(Nc2ncnc3sc(C)c(C)c23)cc1          inactive
17  O=C(Nc1ccc(N2CCN(C(=O)c3ccccc3)CC2)cc1)c1cc2ccccc2o1            active
18  COc1cccc(/C=N/Nc2cc(-n3nc(C)cc3-c3ccccc3)ncn2)c1O          inactive
19     O=C(Nc1nccs1)c1cc2sccc2n1Cc1ccc(F)cc1          inactive
20  CN(C)CCCn1cc(C2=C(c3c[nH]c4ccccc34)C(=O)NC2=O)c2ccccc21            active

Recorded values, source PubChem BioAssay AID1724.
